- TESTED ON: glycoprotein B of HSV-1 (gB-1) (HSV-1, UniProt P10211 31-730)
- PROTOCOL NOTES: Luminex bead competition on gB-1; competitor BMPC-23 human IgG at 2 ng/ml
VALUE KIND: percent inhibition at 222 ng/ml

BINDER	percent inhibition at 222 ng/ml
HSV010-34 (antibody, V domains shown, Mouse monoclonal IgG) VH: EVQLVESGGGLVQPGESLKLSCESNEYEFPSHDMSWVRKTPEKRLELVAAINSDGGSTYYPDTMERRFIISRDNTKKTLYLQMSSLRSEDTALYYCARHSSGYVLDYWGQGTSVTVSS VL: DIQMTQSSSYLSVSLGGRVTITCKASDHINHWLAWYQQKPGNAPRLLISGATSLETGVPSRFSGSGSGKDYTLSIASLQTEDVATYYCQQYWSTPYTFGGGTKLEIKR	> 80%

Q: Look up percent inhibition at 222 ng/ml for this binder: HSV010-7 (antibody, V domains shown, Mouse monoclonal IgG) VH: QVQLQQSGPELVKPGASVKLSCKASGYTFTNYDINWVKQRPGQGLEWIGWIYPRDGSTKYNEKFKGKATLTIDTSSSTAYMELHSLTSEDSAVYFCARGIFYVNYDVYWGQGTLVTVSA VL: DIQMTQSSSFLSVSLGGRVTITCKASDHINNWLAWYQQKPGHAPRLLISGAASLETGVPSRFSGSGSGKDYTLTITSLQTEDVATYYCQQYWSSPLTFGGGTKLELKR
Result: > 90%

Q: Look up percent inhibition at 222 ng/ml for this binder: HSV010-28 (antibody, V domains shown, Mouse monoclonal IgG) VH: QIQLVQSGPELKKPGETVKISCKASGYTFTTYGMSWVKQAPGKGLKWMGWINTYSGVSTYADDFKGRFAFSLETSASTAYLQINNLKNEDTATYFCAQVNYAMDYWGQGTSVTVSS VL: DIVMTQSHKFLSTSVGDWVTITCKASQDVSTAVAWFQQKPGQSPKVLIYSASYRYTGVPDRFTGSGSGTDFTFTISSVQAEDLAVYYCQQHYSTPRTFGGGTKLEIKR
Result: 30%

Q: Look up percent inhibition at 222 ng/ml for this binder: HSV010-4 (antibody, V domains shown, Mouse monoclonal IgG) VH: QVQLKESGPGLVAPSQSLSITCTVSGFSLSRHDVSWVRQPPGKGLEWLGVIWGDGSTNYHSALISRLSISKDNSKSQVFLKLNSLQNDDTATYYCAKEDYGIFPYWGQGTLVTVSA VL: DIKMTQSPSSMYASLGEKVTITCKASQDISSYLSWFQQKPGKSPKTLIYRANRLVDGVPSRFSGSGSGQDYSLSISSLDYEDMGIYYCLQYDEFPLTFGAGTKLELKR
Result: > 95%
